Target: Sentrin-specific protease 8 (Homo sapiens)
Experiment: SENP8 protease inhibitors, retest, confirmation, biochemical, luminescence, single concentration (AID 488912)
Conditions: Recombinant SENP8, Z-RLRGG-aminoluciferin luminescence, 60 min; at 12.5 µM; stronger effect = higher value
The other results are listed elsewhere or left out.
# inhibition per record follows
Field format: number, assumed %, no unit text.

>  <compound>
COc1ccc(-n2nnnc2-c2nc3ccccc3s2)cc1

>  <recorded measurement>
17.5

$$$$
>  <compound>
O=C(N/N=C/c1cccnc1)c1cc2ccccc2cc1O

>  <recorded measurement>
25.3

$$$$
>  <compound>
O=c1c2c(nc3n1CCCCC3)sc1c(O)cccc12

>  <recorded measurement>
53.6

$$$$
>  <compound>
CN(c1ccc2nc3ccccc3c(=O)n2n1)C1CCCCC1

>  <recorded measurement>
94.2

$$$$
>  <compound>
O=C(ON=C1CCN(S(=O)(=O)c2ccccc2)CC1)c1ccc(Cl)cc1

>  <recorded measurement>
12.5

$$$$

Look at this compound and give its reported inhibition. "O=C(c1ccc(CSc2ccccc2)cc1)N1CCCCCC1" 57.5

And then "O=c1c(-c2ccccc2)coc2cc(O)ccc12" , what is it? 61.7

====

Target: Tumor necrosis factor receptor superfamily member 10B (Homo sapiens) (UniProt O14763)
Sequence (O14763 whole entry, looked up): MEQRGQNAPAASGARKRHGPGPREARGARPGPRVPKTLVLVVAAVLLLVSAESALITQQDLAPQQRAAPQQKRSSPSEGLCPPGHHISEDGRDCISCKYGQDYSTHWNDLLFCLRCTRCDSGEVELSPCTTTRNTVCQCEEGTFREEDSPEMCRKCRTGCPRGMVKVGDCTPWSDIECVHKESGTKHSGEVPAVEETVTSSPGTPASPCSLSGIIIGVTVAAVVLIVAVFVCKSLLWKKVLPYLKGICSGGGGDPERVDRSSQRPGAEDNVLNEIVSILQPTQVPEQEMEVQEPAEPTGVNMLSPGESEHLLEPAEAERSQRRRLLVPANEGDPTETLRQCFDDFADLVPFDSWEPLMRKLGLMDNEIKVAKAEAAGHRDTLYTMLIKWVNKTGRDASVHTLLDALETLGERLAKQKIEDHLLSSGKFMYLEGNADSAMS
Experiment: caspase-8 TRAIL sensitization, hit retest, confirmation, cell-based, NB7+caspase-8, with/without TRAIL, luminescence panel (AID 651596)
Conditions: NB7 neuroblastoma + caspase-8, TRAIL sensitization, luminescence viability, with TRAIL, mean of runs, at 10 µM, stronger effect = higher value
Decision: activity beneath 60% gives Yes; activity meeting or exceeding 60% gives No.

Field: example entries. Status: answers known.
>  <compound>
Cc1cccc2sc(NNC(=O)c3ccc(S(=O)(=O)N4CCCC(C)C4)cc3)nc12 (configuration not stated)

>  <class name>
Yes

$$$$
>  <compound>
CC(C)OC(=O)Nc1ccc2c(c1)N(C(=O)N1CCN(C)CC1)c1ccccc1CC2

>  <class name>
No

$$$$
>  <compound>
CCC(=O)Nc1cc2nn(-c3ccccc3)nc2cc1Cl

>  <class name>
No

$$$$
>  <compound>
CC(=O)Oc1ccc(/C=N\NC(=O)c2cc3c(ccc4ccccc43)o2)cc1

>  <class name>
No

$$$$

Strictly below 60%: is that where activity of O=C(NCCc1ccccc1)C(c1cccs1)N(C(=O)CCl)c1ccc(Cl)cc1 (configuration not stated) sits? No

And then "COc1ccc(NC(=O)c2cccc3c2C(=O)c2ccc(-c4ccc(F)cc4OCc4ccccc4)cc2S3(=O)=O)cc1" , what is it? Yes

And then "Cc1cccc2sc(NNC(=O)c3cc(-c4cccs4)nc4ccccc34)nc12" , what is it? Yes

And then "O=C(Nc1cc2ccccc2oc1=O)c1ccccc1" , what is it? Yes

And then "CC(C)Cc1nc2oc3c(Cl)ncnc3c2c2c1CCC2" , what is it? No

And then CC1CCc2c(sc3nc(C(C)(C)C)nc(N4CCN(C(=O)CCl)CC4)c23)C1 (configuration not stated) , what is it? No

And then "O=C(Nc1nc2ccccc2[nH]1)c1ccc(F)cc1" , what is it? No

And then "C(=N\Nc1nc2ccccc2[nH]1)/c1ccc2ncccc2c1" , what is it? No

And then "COc1ccccc1NC(=O)CSc1ccc(-c2ccc(-n3ccnc3)cc2)nn1" , what is it? Yes

And then "CCOC(=O)c1cnc2c(Cl)c(Cl)ccc2c1N1CCN(C)CC1" , what is it? Yes

And then "Cc1nn(-c2ccccc2)c(Cl)c1CN(C(=O)CCl)c1ccc(Cl)cc1" , what is it? No

And then "CCN(CC)c1ccc(C(=O)OCc2cc(=O)oc3cc(O)ccc23)cc1" , what is it? No

And then "C[C@@H](NC(=O)c1ncn2c1c(=O)[nH]c1ccc(Br)cc12)c1ccccc1" , what is it? Yes

And then "O=C(OCn1ncc(Cl)c(Cl)c1=O)c1cccc(C(F)(F)F)c1" , what is it? No
